Test system: Tyrosine-protein kinase SYK (Homo sapiens)
Assay text: Inhibition of human wild type partial length SYK (D354 to N635 residues) expressed in bacterial expression system at 1 uM by KINOMEScan assay relative to control
Endpoint name: inhibition (%)

Below, each entry is followed by its recorded inhibition result.
| Molecule | Scale unit | inhibition |
| --- | --- | --- |
| COc1ccc(-c2cc3nccn3c(Nc3ncccc3C(N)=O)n2)c(OC)c1 | % | 80 |
| COc1ccccc1-c1cc2nccn2c(Nc2ncccc2C(N)=O)n1 | % | 61 |
| CNC(=O)c1cccnc1Nc1nc(-c2ccc3c(c2)OCO3)cc2nccn12 | % | 9 |
| Cc1ccccc1-c1cc2nccn2c(Nc2ncccc2C(N)=O)n1 | % | 11 |
| CCCCOc1ccc(-c2cc3nccn3c(Nc3ncccc3C(N)=O)n2)cc1 | % | 4 |
| CCNC(=O)c1cccnc1Nc1nc(-c2ccccc2)cc2nccn12 | % | 19 |
| COc1cc(OC)cc(-c2cc3nccn3c(Nc3ncccc3C(N)=O)n2)c1 | % | 80 |
| CNC(=O)c1cccnc1Nc1cc(-c2ccccc2)cc2[nH]ccc12 | % | 1 |
| COc1ccc(-c2cc3nccn3c(Nc3ncccc3C(N)=O)n2)cc1 | % | 59 |
| NC(=O)c1cccnc1Nc1nc(-c2ccc3c(c2)OCO3)cc2nccn12 | % | 24 |

[A] O=C(NCc1ccccc1)c1cccnc1Nc1nc(-c2ccccc2)cc2nccn12
[B] CCC(C)NC(=O)c1cccnc1Nc1nc(-c2ccccc2)cc2nccn12 (stereo not drawn)
Look at A and B . Which one has the lower recorded inhibition number? Respond with the label that goes with your answer.
A
(A: 0%, B: 1%)

[1] CNC(=O)c1cccnc1Nc1nc(-c2ccc(OC)cc2)cc2nccn12
[2] COc1ccc(-c2cccc(-c3cc4nccn4c(Nc4ncccc4C(N)=O)n3)c2)cc1
[3] NC(=O)c1cccnc1Nc1nc(-c2ccccc2)cc2nccn12
[4] CN(C)C(=O)c1cccnc1Nc1nc(-c2ccccc2)cc2nccn12
[5] COc1cccc(-c2cc3nccn3c(Nc3ncccc3C(N)=O)n2)c1
Descending sort on inhibition required. As an answer, provide the labels arranged in the order called for.
3, 5, 4, 2, 1
(3: 73%, 5: 37%, 4: 10%, 2: 5%, 1: 0%)

[a] CNC(=O)c1cccnc1Nc1cc(-c2ccc(OC)cc2)cc2[nH]ccc12
[b] COc1ccc(-c2cc3nccn3c(Nc3ncccc3C(N)=O)n2)cc1OC
Field: lower recorded inhibition (choose a or b ) Refer to your chosen entry by its label in the reply.
a
(a: 0%, b: 85%)

[I] CNC(=O)c1cccnc1Nc1nc(-c2ccc(OC)c(OC)c2)cc2nccn12
[II] CNC(=O)c1cccnc1Nc1nc(-c2ccccc2)cc2nccn12
Endpoint returns the identifier whose inhibition is numerically larger, either I or II . The response must carry the label of the picked entry.
II

###

Test system: Mitogen-activated protein kinase kinase kinase kinase 2 (Homo sapiens) (UniProt Q12851)
Sequence (Q12851 whole entry, the tested form may be a part): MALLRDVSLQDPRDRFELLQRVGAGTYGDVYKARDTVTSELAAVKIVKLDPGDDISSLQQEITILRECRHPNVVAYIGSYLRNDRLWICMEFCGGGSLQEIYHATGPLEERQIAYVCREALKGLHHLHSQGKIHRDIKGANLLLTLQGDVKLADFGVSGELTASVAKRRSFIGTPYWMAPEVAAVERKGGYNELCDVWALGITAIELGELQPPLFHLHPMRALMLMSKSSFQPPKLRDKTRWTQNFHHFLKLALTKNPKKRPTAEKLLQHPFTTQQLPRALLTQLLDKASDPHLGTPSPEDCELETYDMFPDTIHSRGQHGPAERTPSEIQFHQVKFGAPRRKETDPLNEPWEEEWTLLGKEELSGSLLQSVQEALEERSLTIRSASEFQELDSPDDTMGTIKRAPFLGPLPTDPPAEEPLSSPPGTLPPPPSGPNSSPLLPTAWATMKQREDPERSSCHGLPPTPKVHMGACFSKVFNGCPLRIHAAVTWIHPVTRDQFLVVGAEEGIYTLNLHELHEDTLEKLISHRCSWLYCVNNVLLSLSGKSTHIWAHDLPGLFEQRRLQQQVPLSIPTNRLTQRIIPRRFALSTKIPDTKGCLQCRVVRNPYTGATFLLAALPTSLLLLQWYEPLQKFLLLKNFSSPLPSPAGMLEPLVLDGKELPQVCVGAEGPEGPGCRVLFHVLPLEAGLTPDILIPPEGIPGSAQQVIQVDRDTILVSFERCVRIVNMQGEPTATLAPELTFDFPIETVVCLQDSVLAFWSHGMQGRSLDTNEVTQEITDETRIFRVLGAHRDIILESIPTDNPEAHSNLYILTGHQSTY
Assay text: Inhibition of human wild type GCK (M1 to G318 residues) expressed in mammalian expression system at 1 uM by KINOMEScan assay relative to control
Endpoint name: inhibition (%)

| Compound | Endpoint name | Scale unit | Reported measurement |
| --- | --- | --- | --- |
| CCNC(=O)c1cccnc1Nc1nc(-c2ccccc2)cc2nccn12 | inhibition | % | 20 |
| CC(C)NC(=O)c1cccnc1Nc1nc(-c2ccccc2)cc2nccn12 | inhibition | % | 0 |
| NC(=O)c1cccnc1Nc1nc(-c2ccc3c(c2)OCO3)cc2nccn12 | inhibition | % | 94.3 |
| CCC(C)NC(=O)c1cccnc1Nc1nc(-c2ccccc2)cc2nccn12 (stereo not drawn) | inhibition | % | 29 |
| CCCCNC(=O)c1cccnc1Nc1nc(-c2ccccc2)cc2nccn12 | inhibition | % | 8 |

[P] CNC(=O)c1cccnc1Nc1nc(-c2ccc(OC)c(OC)c2)cc2nccn12
[Q] NC(=O)c1cccnc1Nc1nc(-c2ccccc2)cc2nccn12
# query: argmin of inhibition over P and Q Which one? Tell me its label.
P
(P: 0%, Q: 99.5%)

[P] CNC(=O)c1cccnc1Nc1nc(-c2ccccc2)cc2nccn12
[Q] COc1ccc(-c2cccc(-c3cc4nccn4c(Nc4ncccc4C(N)=O)n3)c2)cc1
Please state the entry with greater inhibition among P and Q . Answer by stating the label of the chosen item.
Q
(Q: 84%, P: 24%)

[a] COc1ccc(-c2cc3nccn3c(Nc3ncccc3C(N)=O)n2)cc1OC
[b] CNC(=O)c1cccnc1Nc1cc(-c2ccccc2)cc2[nH]ccc12
[c] CNC(=O)c1cccnc1Nc1nc(-c2ccc(OC)cc2)cc2nccn12
Rank entries according to their inhibition, from the largest number down. Reply with the item labels sorted in the order that was asked for.
a, b, c
(a: 100%, b: 29%, c: 1%)

[A] Cc1ccc(-c2cc3nccn3c(Nc3ncccc3C(N)=O)n2)cc1
[B] CCCCOc1ccc(-c2cc3nccn3c(Nc3ncccc3C(N)=O)n2)cc1
Hey, between A and B which has a smaller measured inhibition? Kindly state the label of the option you pick.
B
(B: 47%, A: 99.2%)

[I] COc1ccccc1-c1cc2nccn2c(Nc2ncccc2C(N)=O)n1
[II] CNC(=O)c1cccnc1Nc1cc(-c2ccc(OC)cc2)cc2[nH]ccc12
Determine, for I and II , which has the greater value of inhibition. // output: label of the selected item
I

[P] CNC(=O)c1cccnc1Nc1nc(-c2cccc(OC)c2)cc2nccn12
[Q] CNC(=O)c1cccnc1Nc1nc(-c2ccc3c(c2)OCO3)cc2nccn12
Endpoint returns the identifier whose inhibition is numerically larger, either P or Q . Reply with the label of the item you choose.
Q

[a] COc1ccc(-c2cc3nccn3c(Nc3ncccc3C(N)=O)n2)cc1
[b] CN(C)C(=O)c1cccnc1Nc1nc(-c2ccccc2)cc2nccn12
[c] CCCNC(=O)c1cccnc1Nc1nc(-c2ccccc2)cc2nccn12
Put the entries in order of inhibition, starting with the largest number. // respond by listing labels in the order requested
a, b, c

[a] Cc1ccccc1-c1cc2nccn2c(Nc2ncccc2C(N)=O)n1
[b] O=C(NCc1ccccc1)c1cccnc1Nc1nc(-c2ccccc2)cc2nccn12
In the pair a and b , the larger recorded inhibition belongs to which? In your reply, give the label of the chosen option.
a

###

Test system: Tyrosine-protein kinase SYK (Homo sapiens) (UniProt P43405)
Assay text: Inhibition of human wild type partial length SYK (D354 to N635 residues) expressed in bacterial expression system at 1 uM by KINOMEScan assay relative to control
Endpoint name: inhibition (%)

| Smiles record | Test system | inhibition / % |
| --- | --- | --- |
| CCCCNC(=O)c1cccnc1Nc1nc(-c2ccccc2)cc2nccn12 | Tyrosine-protein kinase SYK (Homo sapiens) (UniProt P43405) | 8 |
| Cc1cccc(-c2cc3nccn3c(Nc3ncccc3C(N)=O)n2)c1 | Tyrosine-protein kinase SYK (Homo sapiens) (UniProt P43405) | 74 |
| CCCOc1ccc(-c2cc3nccn3c(Nc3ncccc3C(N)=O)n2)cc1 | Tyrosine-protein kinase SYK (Homo sapiens) (UniProt P43405) | 51 |

[a] CC(C)NC(=O)c1cccnc1Nc1nc(-c2ccccc2)cc2nccn12
[b] Cc1ccc(-c2cc3nccn3c(Nc3ncccc3C(N)=O)n2)cc1
[c] CNC(=O)c1cccnc1Nc1nc(-c2cccc(OC)c2)cc2nccn12
[d] CCCNC(=O)c1cccnc1Nc1nc(-c2ccccc2)cc2nccn12
# rank_down: sort by inhibition, max first # respond with the labels, arranged in the requested order
b, d, c, a
(b: 58%, d: 5%, c: 1%, a: 0%)

###

Test system: Mitogen-activated protein kinase kinase kinase kinase 2 (Homo sapiens) (UniProt Q12851)
Assay text: Inhibition of human wild type GCK (M1 to G318 residues) expressed in mammalian expression system at 1 uM by KINOMEScan assay relative to control
Endpoint name: inhibition (%)

| Smiles record | Scale unit | inhibition |
| --- | --- | --- |
| CCCOc1ccc(-c2cc3nccn3c(Nc3ncccc3C(N)=O)n2)cc1 | % | 86 |
| COc1cc(OC)cc(-c2cc3nccn3c(Nc3ncccc3C(N)=O)n2)c1 | % | 100 |
| COc1ccc(-c2cc3nccn3c(Nc3ncccc3C(N)=O)n2)c(OC)c1 | % | 100 |
| Cc1cccc(-c2cc3nccn3c(Nc3ncccc3C(N)=O)n2)c1 | % | 100 |
| COc1cccc(-c2cc3nccn3c(Nc3ncccc3C(N)=O)n2)c1 | % | 97.2 |

Provenance of the data: ChEMBL document CHEMBL4038294
